Molecular target: Rap guanine nucleotide exchange factor 4 (Homo sapiens)
Assay: qHTS for Antagonist of cAMP-regulated guanine nucleotide exchange factor 2 (EPAC2): primary screen; further: nearly all actives have a fitted effect of over 45% in size
Settings: EPAC2 GEF exchange of Rap1B-BODIPY-GDP, fluorescence; series mostly up to 114 µM
The whole screen tested about 360,000 compounds, of which about 660 (0.18%) were called active. Inconclusive results (about 2%) are left out. The call rests on the fitted dose curve; in most records, active means well fitted inhibition curve with a large enough effect; inconclusive means small, poorly fitted or top-dose-only effect; inactive means no such curve, though single readings can be large or run the other way. The entries come from a sample that favours actives as a whole.
Please state which outcome applies, choosing from active, inactive

q: // param item: Cc1ccc(Cl)cc1N1CCN(C(=O)c2cccc3c(=O)c(C)c(-c4ccccc4)oc23)CC1 ; yields the recorded call
a: active

q: Okay, and CCOC(=O)[C@]12CCCC=C1N(Cc1ccc(Cl)cc1Cl)C(=O)[C@H](CC(=O)N1CCCCC1)C2 ?
a: inactive

q: Okay, and COc1ccccc1N1CCN(C(=O)c2cc(=O)c3cc(C)cc(C)c3o2)CC1 ?
a: inactive

q: Okay, and N#C[C@]1(S(=O)(=O)c2ccccc2)C[C@@H]2ON=C(c3cccc(Br)c3)[C@@H]2C1 ?
a: inactive

q: Okay, and COc1cccc2c(C)c(C(=O)O)[nH]c12 ?
a: inactive

q: Okay, and CCN(c1ccccc1)S(=O)(=O)c1ccc2[nH]c(=O)[nH]c2c1 ?
a: inactive

q: Okay, and Cc1cccc(C)c1NC(=O)C(c1cccc2ccccc12)n1c(=O)c(-c2ccco2)nc2ccccc21 (centres undefined) ?
a: inactive

q: Okay, and COC(=O)[C@]12CCCCC=C1N(Cc1ccccc1)C(=O)[C@H](CC(=O)NCc1ccc(C)o1)C2 ?
a: inactive

q: Okay, and Cc1cc(C(=O)CC#N)c(C)n1-c1c(C)n(C)n(-c2ccccc2)c1=O ?
a: inactive
